assay: Study G1T28-03 Part 1 plasma PK (with topotecan)
Format: in vivo, human
protocol-conditions: human, plasma, 280 mg/m2, ES-SCLC + topotecan, 280 mg/m2, Cycle 1 Day 4 (n = 7), geometric mean; read-out: AUCtau (AUC0-inf, footnote a)
quantity-name: AUC(0-inf) (ng·h/mL)
Numbers only; they are read as ng·h/mL.

The recorded AUC(0-inf) for entry CN1CCN(c2ccc(Nc3ncc4cc5n(c4n3)C3(CCCCC3)CNC5=O)nc2)CC1 equals 4520

----------
assay: Study G1T28-03 Part 1 plasma PK (with topotecan)
Type: in vivo, human
protocol-conditions: human, plasma; ES-SCLC + topotecan, 240 mg/m2, Cycle 1 Day 4 (n = 15), geometric mean
quantity-name: clearance (mL/min)
Form entry: value (mL/min) — number only.

Sure, the documented clearance for CN1CCN(c2ccc(Nc3ncc4cc5n(c4n3)C3(CCCCC3)CNC5=O)nc2)CC1 is 2470
